Recorded values, source patent US6867305B2.

test: physchem
Record form. Attribute: solubility. Fill in for each entry.

# compound, measurement
rows = [
    ("C/C1=C/C[C@@H](/C(C)=C/c2csc(C)n2)OC(=O)C[C@H](O)C(C)(C)C(=O)[C@H](C)[C@@H](O)[C@@H](C)CCC1 [dEpoB, 12,13-desoxyepothilone B]", "~10 mg/mL"),
]

Exercise: So what does the record say about solubility for C/C1=C/C[C@@H](/C(C)=C/c2csc(CO)n2)OC(=O)C[C@H](O)C(C)(C)C(=O)[C@H](C)[C@@H](O)[C@@H](C)CCC1 [dEpoF, 12,13-Desoxyepothilone F] ?
Solution: ~25 mg/mL

----------
Tested on: K562 human chronic myeloblastic leukemia
Assay: Tumor cell growth inhibition in vitro
Type: cell-based
Conditions: Homo sapiens, K562, K562; read-out: IC50
Description: The cells were cultured at an initial density of 2-5×10^4 cells per ml. […] For solid tumor cells growing in a monolayer (such as MCF-7/Adr), cytotoxicitiy of the drug was determined in 96-well microtiter plates by using the sulforhodamine B method as described by Skehan et al (23) for measuring the cellular protein content. […] For both methods, the absorbance of each well was measured with a microplate reader (EL-340, Bio-Tek, Burlington, Vt.). […]
Record form. Attribute: IC50. Fill in for each entry.
Answers are plain numbers, in nM.

# compound, IC50 / nM
rows = [
    ("C/C1=C/C[C@@H](/C(C)=C/c2csc(C)n2)OC(=O)C[C@H](O)C(C)(C)C(=O)[C@H](C)[C@@H](O)[C@@H](C)CCC1 [dEpoB, 12,13-desoxyepothilone B]", 3.6),
]

API: the following record is the query input.
Exercise: So what does the record say about IC50 for C/C1=C/C[C@@H](/C(C)=C/c2csc(CO)n2)OC(=O)C[C@H](O)C(C)(C)C(=O)[C@H](C)[C@@H](O)[C@@H](C)CCC1 [dEpoF, 12,13-Desoxyepothilone F] ?
Solution: 2.1

----------
tested on: UL-3-B/Taxol; conditions: UL-3-B/Taxol
readout.type: pIC50
Numbers only, as −log10 of the molar value.

# compound, pIC50
records = [
    ("C/C(=C\\c1csc(C)n1)[C@@H]1C[C@@H]2O[C@]2(C)CCC[C@H](C)[C@H](O)[C@@H](C)C(=O)C(C)(C)[C@@H](O)CC(=O)O1 [EpoB, epothilone B, reference compound]", 8.91),
]

API: the following record is the query input.
Exercise: So what does the record say about pIC50 for CC(=O)O[C@H]1C(=O)[C@@]2(C)[C@H]([C@H](OC(=O)c3ccccc3)[C@]3(O)C[C@H](OC(=O)[C@H](O)[C@@H](NC(=O)c4ccccc4)c4ccccc4)C(C)=C1C3(C)C)[C@]1(OC(C)=O)CO[C@@H]1C[C@@H]2O [Taxol, paclitaxel, reference compound] ?
Solution: 7.87

----------
test: Pharmacokinetics in beagle dogs; assay type: in vivo; conditions: male, dog, plasma, intravenous, 6 mg/kg, 10-min i.v. infusion, read-out: α-phase t1/2 (converted)
readout.type: half-life (h)
Answers are plain numbers, in h.

Exercise: So what does the record say about half-life for C/C1=C/C[C@@H](/C(C)=C/c2csc(C)n2)OC(=O)C[C@H](O)C(C)(C)C(=O)[C@H](C)[C@@H](O)[C@@H](C)CCC1 [dEpoB, 12,13-desoxyepothilone B] ?
Solution: 1.9

----------
test system: MCF-7 human mammary adenocarcinoma; experiment: Tumor cell growth inhibition in vitro; assay type: cell-based; settings: MCF-7; read-out: IC50
readout.type: IC50 (nM)
Give bare numbers, in nM.

Exercise: So what does the record say about IC50 for COc1cccc2c1C(=O)c1c(O)c3c(c(O)c1C2=O)C[C@@](O)(C(=O)CO)C[C@@H]3O[C@H]1C[C@H](N)[C@H](O)[C@H](C)O1 [Adriamycin, doxorubicin, reference compound] ?
Solution: 90

----------
tested on: MX-1 human mammary carcinoma; experiment: Tumor cell growth inhibition in vitro; format: cell-based
readout.type: pIC50
Give bare numbers, as −log10 of the molar value.

Exercise: So what does the record say about pIC50 for C/C(=C\c1csc(C)n1)[C@@H]1C[C@@H]2O[C@]2(C)CCC[C@H](C)[C@H](O)[C@@H](C)C(=O)C(C)(C)[C@@H](O)CC(=O)O1 [EpoB, epothilone B, reference compound] ?
Solution: 8.74

----------
assay: physchem; conditions: water
readout.type: solubility

Exercise: So what does the record say about solubility for CC(=O)O[C@H]1C(=O)[C@@]2(C)[C@H]([C@H](OC(=O)c3ccccc3)[C@]3(O)C[C@H](OC(=O)[C@H](O)[C@@H](NC(=O)c4ccccc4)c4ccccc4)C(C)=C1C3(C)C)[C@]1(OC(C)=O)CO[C@@H]1C[C@@H]2O [Taxol, paclitaxel, reference compound] ?
Solution: ~600 µg/mL

----------
test system: DC-3F hamster lung fibroblasts; test: Tumor cell growth inhibition in vitro; assay type: cell-based; conditions: Mesocricetus auratus, DC3F, read-out: IC50
readout.type: pIC50
Give bare numbers, as −log10 of the molar value.

Exercise: So what does the record say about pIC50 for C/C(=C\c1csc(C)n1)C1C[C@@H]2O[C@]2(C)CCC[C@H](C)[C@H](O)[C@@H](C)C(=O)C(C)(C)C(O)CC(=O)N1 (stereo partly shown) ?
Solution: 8.06

----------
system: MCF-7/Adr; experiment: Tumor cell growth inhibition in vitro; assay type: cell-based, human; details: Homo sapiens, NCI/ADR-RES, MCF-7/Adr
Where a name gives a salt, the structure may show the parent alone.
Record form. Attribute: IC50. Fill in for each entry.
Your answer should be a number followed by the unit of measure.

// each listed compound needs a value for IC50
1. CC[C@]1(O)C[C@@H]2CN(CCc3c([nH]c4ccccc34)[C@@](C(=O)OC)(c3cc4c(cc3OC)N(C)[C@H]3[C@@](O)(C(=O)OC)[C@H](OC(C)=O)[C@]5(CC)C=CCN6CC[C@]43[C@@H]65)C2)C1 [Vinblastine, vinblastine sulfate, reference compound]
2. COc1cccc2c1C(=O)c1c(O)c3c(c(O)c1C2=O)C[C@@](O)(C(=O)CO)C[C@@H]3O[C@H]1C[C@H](N)[C@H](O)[C@H](C)O1 [Adriamycin, doxorubicin, reference compound]
3. C/C1=C/C[C@@H](/C(C)=C/c2csc(CO)n2)OC(=O)C[C@H](O)C(C)(C)C(=O)[C@H](C)[C@@H](O)[C@@H](C)CCC1 [dEpoF, 12,13-Desoxyepothilone F]
4. C/C1=C/C[C@@H](/C(C)=C/c2csc(C)n2)OC(=O)C[C@H](O)C(C)(C)C(=O)[C@H](C)[C@@H](O)[C@@H](C)CCC1 [dEpoB, 12,13-desoxyepothilone B]

Solution:
1. 25 nM
2. 280 nM
3. 9.7 nM
4. 7.15 nM

----------
system: DC-3F hamster lung fibroblasts; assay: Tumor cell growth inhibition in vitro; format: cell-based
readout.type: pIC50
Answers are plain numbers, as −log10 of the molar value.

Exercise: So what does the record say about pIC50 for C/C1=C/C[C@@H](/C(C)=C/c2csc(C)n2)OC(=O)C[C@H](O)C(C)(C)C(=O)[C@H](C)[C@@H](O)[C@@H](C)CCC1 ?
Solution: 8.60

----------
Tested on: CCRF-CEM/VBL
Test: Relative potency in vitro, very highly resistant MDR cells
Assay type: cell-based, human
Settings: very highly resistant MDR CCRF-CEM/VBL cells; read-out: CCRF-CEM/VBL IC50
Protocol: The cells were cultured at an initial density of 2-5×10^4 cells per ml. […] For solid tumor cells growing in a monolayer (such as MCF-7/Adr), cytotoxicitiy of the drug was determined in 96-well microtiter plates by using the sulforhodamine B method as described by Skehan et al (23) for measuring the cellular protein content. […] For both methods, the absorbance of each well was measured with a microplate reader (EL-340, Bio-Tek, Burlington, Vt.). […]
readout.type: IC50 (nM)
Give bare numbers, in nM.

Exercise: So what does the record say about IC50 for C/C1=C/C[C@@H](/C(C)=C/c2csc(C=O)n2)OC(=O)C[C@H](O)C(C)(C)C(=O)[C@H](C)[C@@H](O)[C@@H](C)CCC1 ?
Solution: 326

----------
tested on: HT-29 human colon adenocarcinoma; experiment: Tumor cell growth inhibition in vitro; type: cell-based
readout.type: IC50

See these solved cases before continuing.
# compound, measurement
records = [
    ("C/C1=C/C[C@@H](/C(C)=C/c2csc(CO)n2)OC(=O)C[C@H](O)C(C)(C)C(=O)[C@H](C)[C@@H](O)[C@@H](C)CCC1", "1.4 nM"),
    ("C/C(=C\\c1csc(C)n1)C1C[C@@H]2O[C@]2(C)CCC[C@H](C)[C@H](O)[C@@H](C)C(=O)C(C)(C)C(O)CC(=O)N1 (stereo partly shown)", "3.2 nM"),
    ("C/C1=C/C[C@@H](/C(C)=C/c2csc(C)n2)OC(=O)C[C@H](O)C(C)(C)C(=O)[C@H](C)[C@@H](O)[C@@H](C)CCC1", "4.8 nM"),
]

API: the following record is the query input.
Exercise: So what does the record say about IC50 for CC(=O)O[C@H]1C(=O)[C@@]2(C)[C@H]([C@H](OC(=O)c3ccccc3)[C@]3(O)C[C@H](OC(=O)[C@H](O)[C@@H](NC(=O)c4ccccc4)c4ccccc4)C(C)=C1C3(C)C)[C@]1(OC(C)=O)CO[C@@H]1C[C@@H]2O [Taxol, paclitaxel, reference compound] ?
Solution: 1.6 nM
